target: human cationic trypsin (TRY1) WT (human, UniProt P07477 24-247); test: trypsin activity assay
pKi: −log10 of the molar value.
MEASURED ATTRIBUTE: pKi

| BINDER | NUMERIC VALUE |
| --- | --- |
| serine protease inhibitor Kazal-type 1 (SPINK1) WT (natural protein) DSLGREAKCYNELNGCTKIYDPVCGTDGNTYPNECVLCFENRKRQTSILIQKSGPC | 10.55 |
| serine protease inhibitor Kazal-type 1 (SPINK1) p.N34S (natural protein) DSLGREAKCYSELNGCTKIYDPVCGTDGNTYPNECVLCFENRKRQTSILIQKSGPC | 10.35 |
